Just for reference, patent US20140256771A1 is where these values come from.

# target_system: Orai1/STIM1 (Homo sapiens, UniProt Q96D31)
# Construct: expressed in transfected cells; host or cells: HEK-293
# Sequence (Q96D31 whole entry): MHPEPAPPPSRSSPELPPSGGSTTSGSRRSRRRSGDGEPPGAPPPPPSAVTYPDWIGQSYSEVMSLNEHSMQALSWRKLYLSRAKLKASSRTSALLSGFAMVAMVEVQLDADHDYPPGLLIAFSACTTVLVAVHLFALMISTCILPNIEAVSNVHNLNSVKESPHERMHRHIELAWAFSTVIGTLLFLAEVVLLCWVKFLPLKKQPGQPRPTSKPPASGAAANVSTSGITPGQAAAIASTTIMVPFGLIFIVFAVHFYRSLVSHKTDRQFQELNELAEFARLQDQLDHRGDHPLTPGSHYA
# assay_procedure: Fluorescence-based assay of store-operated calcium entry in Orai1/STIM1 stable cells
# Format: cell-based
# recorded_conditions: Table iii; HEK-293 cells stably expressing human STIM1 and Orai1; 50% inhibition of Peak-Basal fluo-4 signal; read-out: Orai1/STIM1 (IC50, μmol)
pIC50: −log10 of the molar value.
endpoint: pIC50

Please review the entries below; each comes with its answer.
>  <smi>
Cc1ccccc1CNc1ccc(-c2cn(C(F)F)nc2C)c(F)c1

>  <pIC50>
5.92 to 6.22

$$$$
>  <smi>
Cc1cc(C(F)(F)F)nn1-c1ccc(NCc2c(F)cccc2F)cc1

>  <pIC50>
> 6.22

$$$$
>  <smi>
Cc1nc(C(F)(F)F)cn1-c1ccc(NCc2c(F)cc(F)cc2F)cc1F

>  <pIC50>
> 6.22

$$$$
>  <smi>
Fc1cccc(F)c1CNc1ccc(-n2nc(C(F)(F)F)cc2C(F)(F)F)cc1

>  <pIC50>
5.92 to 6.22

$$$$
>  <smi>
Cc1cc(F)ccc1CNc1ccc(-c2cc(C(F)F)nn2C)c(F)c1

>  <pIC50>
5.92 to 6.22

$$$$
>  <smi>
Cc1cc2c(cc1-c1ccc(NCc3cncc(F)c3)cc1)OC(F)(F)O2

>  <pIC50>
5.92 to 6.22

$$$$
>  <smi>
Cn1nc(C(F)(F)F)cc1-c1ccc(NCc2ccc(F)cc2F)cc1

>  <pIC50>
> 6.22

$$$$
>  <smi>
Cc1nn(C(F)F)cc1-c1ccc(NCc2c(F)cccc2F)cc1F

>  <pIC50>
> 6.22

$$$$
>  <smi>
Cc1nc(C(F)(F)F)cn1-c1ccc(NCc2c(F)cccc2F)cc1F

>  <pIC50>
> 6.22

$$$$
>  <smi>
Cn1nc(C(F)(F)F)cc1-c1ccc(NCc2ccccc2F)c(F)c1

>  <pIC50>
5.92 to 6.22

$$$$

Moving on to another molecule below.
Value of pIC50 reported for the molecule Cn1nc(C(F)(F)F)cc1-c1ccc(NCc2c(F)cc(F)cc2F)cc1 is > 6.22

###

Catalogue of IC50 values
# target_system: Orai1/STIM1 (Homo sapiens)
# Construct: expressed in transfected cells; host or cells: HEK-293
# assay_procedure: Fluorescence-based assay of store-operated calcium entry in Orai1/STIM1 stable cells
# Format: cell-based
# recorded_conditions: Table iv; HEK-293 cells stably expressing human STIM1 and Orai1; 50% inhibition of Peak-Basal fluo-4 signal; read-out: Orai1/STIM1 (IC50, μmol)

Before answering, review these 6 worked examples.
>  <smi>
Cn1nc(C(F)(F)F)cc1-c1c(F)cc(NC(=O)c2ccc(F)cc2F)cc1F

>  <target_system>
Orai1/STIM1 (Homo sapiens)

>  <IC50>
< 600 nM

$$$$
>  <smi>
Cc1cc2c(cc1-c1ccc(NC(=O)c3cncc(F)c3)cc1)OC(F)(F)O2

>  <target_system>
Orai1/STIM1 (Homo sapiens)

>  <IC50>
600 to 1200 nM

$$$$
>  <smi>
CCn1nc(C(F)(F)F)cc1-c1ccc(NC(=O)c2ccccc2F)cc1

>  <target_system>
Orai1/STIM1 (Homo sapiens)

>  <IC50>
< 600 nM

$$$$
>  <smi>
Cc1nc(C(F)(F)F)cn1-c1ccc(NC(=O)c2c(F)ccc(F)c2F)cc1

>  <target_system>
Orai1/STIM1 (Homo sapiens)

>  <IC50>
> 1200 nM

$$$$
>  <smi>
Cc1nn(C(F)F)cc1-c1ccc(NC(=O)c2c(F)cc(F)cc2F)cc1F

>  <target_system>
Orai1/STIM1 (Homo sapiens)

>  <IC50>
< 600 nM

$$$$
>  <smi>
Cc1cc(C(F)(F)F)nn1-c1ccc(NC(=O)c2c(F)ccc(F)c2F)cc1

>  <target_system>
Orai1/STIM1 (Homo sapiens)

>  <IC50>
> 1200 nM

$$$$

For this compound ( Cn1nc(C(F)(F)F)cc1-c1ccc(NC(=O)c2c(Cl)cnn2C)cc1 ), measured IC50 is < 600 nM

Short answer for Cc1cc2c(cc1-c1ccc(NC(=O)c3c(F)cccc3F)cc1F)OC(F)(F)O2 : IC50 was > 1200 nM

response.value for Cc1nc(C(F)(F)F)cn1-c1ccc(NC(=O)c2c(F)cccc2F)cc1 (field: IC50) = > 1200 nM

###

As shown below, each of these compounds has a reported IC50 value.
# target_system: Orai1/STIM1 (Homo sapiens)
# Construct: expressed in transfected cells; host or cells: HEK-293
# assay_procedure: Fluorescence-based assay of store-operated calcium entry in Orai1/STIM1 stable cells
# Format: cell-based
# recorded_conditions: Table iii; HEK-293 cells stably expressing human STIM1 and Orai1; 50% inhibition of Peak-Basal fluo-4 signal; read-out: Orai1/STIM1 (IC50, μmol)

Below are worked cases with known answers.
>  <smi>
Cc1cc2c(cc1-c1ccc(NCc3c(F)cncc3F)cc1)OC(F)(F)O2

>  <IC50>
< 600 nM

$$$$
>  <smi>
Cc1nn(C(F)F)cc1-c1ccc(NCc2c(F)ccc(F)c2F)cc1

>  <IC50>
< 600 nM

$$$$
>  <smi>
Cc1ccccc1CNc1ccc(-c2nc(C(F)(F)F)sc2C)cc1

>  <IC50>
600 to 1200 nM

$$$$

Record Cc1cc2c(cc1-c1ccc(NCc3ccccc3F)cc1F)OC(F)(F)O2 . Reported IC50: > 1200 nM

For Cc1cc2c(cc1-c1ccc(NCc3c(F)cncc3F)cc1F)OC(F)(F)O2 the compound record lists IC50 as 600 to 1200 nM

###

# target_system: Orai1/STIM1 (Homo sapiens, UniProt Q96D31)
# Construct: expressed in transfected cells; host or cells: HEK-293
# assay_procedure: Fluorescence-based assay of store-operated calcium entry in Orai1/STIM1 stable cells
# Assay type: cell-based
# recorded_conditions: Table iii; HEK-293 cells stably expressing human STIM1 and Orai1; 50% inhibition of Peak-Basal fluo-4 signal; read-out: Orai1/STIM1 (IC50, μmol)
pIC50: −log10 of the molar value.
endpoint: pIC50

>  <smi>
Cn1nc(C(F)(F)F)cc1-c1ccc(NCc2c(F)cncc2F)cc1F

>  <target_system>
Orai1/STIM1 (Homo sapiens, UniProt Q96D31)

>  <endpoint>
pIC50

>  <endpoint_result>
> 6.22

$$$$
>  <smi>
CCn1nc(C(F)(F)F)cc1-c1ccc(NCc2c(F)cccc2F)cc1F

>  <target_system>
Orai1/STIM1 (Homo sapiens, UniProt Q96D31)

>  <endpoint>
pIC50

>  <endpoint_result>
5.92 to 6.22

$$$$
>  <smi>
Cc1sc(C(F)(F)F)nc1-c1ccc(NCc2c(F)cccc2F)cc1

>  <target_system>
Orai1/STIM1 (Homo sapiens, UniProt Q96D31)

>  <endpoint>
pIC50

>  <endpoint_result>
> 6.22

$$$$
>  <smi>
Cc1cc2c(cc1-c1ccc(NCc3ccccc3F)cc1)OC(F)(F)O2

>  <target_system>
Orai1/STIM1 (Homo sapiens, UniProt Q96D31)

>  <endpoint>
pIC50

>  <endpoint_result>
< 5.92

$$$$
>  <smi>
Fc1cnccc1CNc1ccc(-n2nc(C(F)(F)F)cc2C(F)(F)F)cc1

>  <target_system>
Orai1/STIM1 (Homo sapiens, UniProt Q96D31)

>  <endpoint>
pIC50

>  <endpoint_result>
5.92 to 6.22

$$$$

Readout pIC50 for Cc1cccc(F)c1CNc1ccc(-c2nc(C(F)(F)F)sc2C)cc1 , test system Orai1/STIM1 (Homo sapiens, UniProt Q96D31), was 5.92 to 6.22

The value of pIC50 recorded for Cc1cc(C(F)(F)F)nn1-c1ccc(NCc2c(F)cc(F)cc2F)cc1 when tested on Orai1/STIM1 (Homo sapiens, UniProt Q96D31) reads > 6.22
